biological target: HLA B*0702 (Homo sapiens); format: binding; conditions: positional scanning combinatorial 9-mer library; normalized to 1.0 for the best residue at each position
Response key: t means Normalized average relative binding affinity (ARB), HLA B*0702 >= 0.2; f means Normalized average relative binding affinity (ARB), HLA B*0702 < 0.2.

residue_codes="XXVXXXXXX [3064.0058]" assigned_class=f
residue_codes="XXMXXXXXX [3064.0051]" assigned_class=t

Given XXIXXXXXX [3064.0048] , state whether its Normalized average relative binding affinity (ARB), HLA B*0702 is at least 0.2.
f

Then this sequence: XXNXXXXXX [3064.0052]
f

Then this sequence: PXXXXXXXX [3064.0013]
f

Then this sequence: TXXXXXXXX [3064.0017]
f

Then this sequence: XWXXXXXXX [3064.0039]
f

Then this sequence: WXXXXXXXX [3064.0019]
t

* * *

target: HLA B*1503 (Homo sapiens, UniProt P01889, A329T/A93T/A95T/C349S/D201E/D98Y/E187L/E204Q/K202T/N87E/Q94N/R155S/R180L/S121R/S35A/V306I/V36M/Y140S/Y91S); experiment: biochemical; format: binding
Each record is given class 1 if its reported Normalized average relative binding affinity(ARB) is strictly below 0.4. Records at or above 0.4 are given class 0.

Here's what some known entries look like.
residue_codes="XXXXXLXXX [3064.0110]" assigned_class="class 1"
residue_codes="XXXXKXXXX [3064.0089]" assigned_class="class 1"
residue_codes="XXXXXQXXX [3064.0114]" assigned_class="class 0"

Is Normalized average relative binding affinity(ARB) strictly under 0.4 for the entry XXXXXXLXX [3064.0130] ?
class 1

Then this sequence: XXXXTXXXX [3064.0097]
class 0

Then this sequence: XXXXXXNXX [3064.0132]
class 0

Then this sequence: XXXXXXIXX [3064.0128]
class 1

Then this sequence: XXXXXPXXX [3064.0113]
class 0

Then this sequence: XXXKXXXXX [3064.0069]
class 1

Then this sequence: XXXWXXXXX [3064.0079]
class 0

Then this sequence: XXXXXFXXX [3064.0105]
class 0

Then this sequence: XXXXAXXXX [3064.0081]
class 0

Then this sequence: XXXXXXXVX [3064.0158]
class 1

* * *

biological target: HLA B*5401 (Homo sapiens, UniProt P01889, A329T/C349S/D138N/D201E/E176V/E187T/E204Q/E69G/I76V/K202T/L119W/R155S/R180L/S121T/S35A/S48A/V127L/V306I/V36M/Y140L); type: binding
Each record is given 1 if its reported Normalized average relative binding affinity (ARB), HLA B*5401 is strictly below 0.007. Records at or above 0.007 are given -1.

Here's what some known entries look like.
residue_codes="XKXXXXXXX [3064.0029]" assigned_class=1
residue_codes="XFXXXXXXX [3064.0025]" assigned_class=1
residue_codes="HXXXXXXXX [3064.0007]" assigned_class=-1
residue_codes="QXXXXXXXX [3064.0014]" assigned_class=-1

Is Normalized average relative binding affinity (ARB), HLA B*5401 strictly under 0.007 for the entry XDXXXXXXX [3064.0023] ?
1

Then this sequence: XXYXXXXXX [3064.0060]
-1

Then this sequence: XXQXXXXXX [3064.0054]
-1
